The reader will find reported normalised inhibition (eCFP-eYFP dual reporter) values listed item by item below.
# Target Under Test: Mmp7 (rat)
# Assay: reporter assay of Huesken 2005
# Experimental Parameters: siRNA
Oligonucleotides are given in HELM: sugar(base)linkage, 5' to 3'; d 2'-deoxyribose, r ribose, m 2'-O-methylribose, p phosphate. ss, as = sense and antisense strand
Mention the unit after the number when you answer.

Consider the reported normalised inhibition (eCFP-eYFP dual reporter) for these substances:
query: # input substance: "RNA1{r(A)p.r(G)p.r(G)p.r(C)p.r(G)p.r(U)p.r(G)p.r(A)p.r(A)p.r(C)p.r(U)p.r(U)p.r(C)p.r(C)p.r(U)p.r(G)p.r(U)p.r(U)p.r(U)p.d(T)p.d(T)}|RNA2{r(A)p.r(A)p.r(A)p.r(C)p.r(A)p.r(G)p.r(G)p.r(A)p.r(A)p.r(G)p.r(U)p.r(U)p.r(C)p.r(A)p.r(C)p.r(G)p.r(C)p.r(C)p.r(U)p.d(G)p.d(A)}$$$RNA1{StrandType:ss}|RNA2{StrandType:as}$" ; wanted: its normalised inhibition (eCFP-eYFP dual reporter)
result: 91.1%

query: Try this substance too: "RNA1{r(C)p.r(A)p.r(A)p.r(A)p.r(C)p.r(A)p.r(G)p.r(U)p.r(C)p.r(C)p.r(U)p.r(A)p.r(A)p.r(G)p.r(U)p.r(G)p.r(G)p.r(C)p.r(A)p.d(T)p.d(T)}|RNA2{r(U)p.r(G)p.r(C)p.r(C)p.r(A)p.r(C)p.r(U)p.r(U)p.r(A)p.r(G)p.r(G)p.r(A)p.r(C)p.r(U)p.r(G)p.r(U)p.r(U)p.r(U)p.r(G)p.d(G)p.d(C)}$$$RNA1{StrandType:ss}|RNA2{StrandType:as}$"
result: 81.2%

Next:
query: What value of measured normalised inhibition (eCFP-eYFP dual reporter) is listed for "RNA1{r(G)p.r(U)p.r(G)p.r(A)p.r(G)p.r(G)p.r(A)p.r(C)p.r(U)p.r(C)p.r(A)p.r(G)p.r(G)p.r(C)p.r(G)p.r(U)p.r(G)p.r(A)p.r(A)p.d(T)p.d(T)}|RNA2{r(U)p.r(U)p.r(C)p.r(A)p.r(C)p.r(G)p.r(C)p.r(C)p.r(U)p.r(G)p.r(A)p.r(G)p.r(U)p.r(C)p.r(C)p.r(U)p.r(C)p.r(A)p.r(C)p.d(C)p.d(A)}$$$RNA1{StrandType:ss}|RNA2{StrandType:as}$" ?
result: 89.4%

----------
# Target Under Test: TMEM63B
# Assay: reporter assay of Huesken 2005
# Experimental Parameters: siRNA
Oligonucleotides are given in HELM: sugar(base)linkage, 5' to 3'; d 2'-deoxyribose, r ribose, m 2'-O-methylribose, p phosphate. ss, as = sense and antisense strand
Measured normalised inhibition (eCFP-eYFP dual reporter) by item
Just the number in %, nothing appended.

query: Which measured normalised inhibition (eCFP-eYFP dual reporter) belongs to "RNA1{r(C)p.r(U)p.r(C)p.r(U)p.r(A)p.r(C)p.r(U)p.r(A)p.r(C)p.r(G)p.r(C)p.r(C)p.r(U)p.r(A)p.r(C)p.r(C)p.r(U)p.r(G)p.r(C)p.d(T)p.d(T)}|RNA2{r(G)p.r(C)p.r(A)p.r(G)p.r(G)p.r(U)p.r(A)p.r(G)p.r(G)p.r(C)p.r(G)p.r(U)p.r(A)p.r(G)p.r(U)p.r(A)p.r(G)p.r(A)p.r(G)p.d(A)p.d(T)}$$$RNA1{StrandType:ss}|RNA2{StrandType:as}$" , tested on TMEM63B?
result: 56.4

query: What do you have for "RNA1{r(A)p.r(G)p.r(A)p.r(G)p.r(G)p.r(C)p.r(G)p.r(C)p.r(A)p.r(A)p.r(C)p.r(G)p.r(U)p.r(G)p.r(A)p.r(A)p.r(G)p.r(C)p.r(G)p.d(T)p.d(T)}|RNA2{r(C)p.r(G)p.r(C)p.r(U)p.r(U)p.r(C)p.r(A)p.r(C)p.r(G)p.r(U)p.r(U)p.r(G)p.r(C)p.r(G)p.r(C)p.r(C)p.r(U)p.r(C)p.r(U)p.d(C)p.d(G)}$$$RNA1{StrandType:ss}|RNA2{StrandType:as}$" ?
result: 35.7

query: Field entry: "RNA1{r(A)p.r(U)p.r(U)p.r(U)p.r(U)p.r(G)p.r(A)p.r(G)p.r(G)p.r(A)p.r(A)p.r(G)p.r(C)p.r(C)p.r(U)p.r(A)p.r(C)p.r(C)p.r(C)p.d(T)p.d(T)}|RNA2{r(G)p.r(G)p.r(G)p.r(U)p.r(A)p.r(G)p.r(G)p.r(C)p.r(U)p.r(U)p.r(C)p.r(C)p.r(U)p.r(C)p.r(A)p.r(A)p.r(A)p.r(A)p.r(U)p.d(G)p.d(C)}$$$RNA1{StrandType:ss}|RNA2{StrandType:as}$"
result: 27.8

query: What do you get for "RNA1{r(A)p.r(A)p.r(C)p.r(G)p.r(U)p.r(G)p.r(C)p.r(C)p.r(U)p.r(A)p.r(C)p.r(C)p.r(A)p.r(U)p.r(G)p.r(A)p.r(U)p.r(C)p.r(A)p.d(T)p.d(T)}|RNA2{r(U)p.r(G)p.r(A)p.r(U)p.r(C)p.r(A)p.r(U)p.r(G)p.r(G)p.r(U)p.r(A)p.r(G)p.r(G)p.r(C)p.r(A)p.r(C)p.r(G)p.r(U)p.r(U)p.d(C)p.d(T)}$$$RNA1{StrandType:ss}|RNA2{StrandType:as}$" ?
result: 80.1

----------
# Target Under Test: UBE2T
# Assay: reporter assay of Huesken 2005
# Experimental Parameters: siRNA
Oligonucleotides are written 5' to 3', each unit as a sugar letter and its base; * is a phosphorothioate linkage, no mark a phosphodiester; rarer units and linkages stand in square brackets, end groups in braces. Plain capitals give the bases only. d = 2'-deoxy (DNA); r = 2'-OH (RNA)
// NOT MET strictly below 90% in normalised inhibition (eCFP-eYFP dual reporter); MET otherwise

query: Identify whether the reported normalised inhibition (eCFP-eYFP dual reporter) of the following substance is 90% or greater: sense rGrCrArArCrUrGrUrGrUrUrGrArCrCrUrCrUrAdTdT / antisense rUrArGrArGrGrUrCrArArCrArCrArGrUrUrGrCdGdA
result: MET

Here is the next item to consider.
query: Kindly determine if normalised inhibition (eCFP-eYFP dual reporter) recorded for sense rUrGrArUrGrArCrCrCrGrCrUrCrArUrGrGrCrUdTdT / antisense rArGrCrCrArUrGrArGrCrGrGrGrUrCrArUrCrAdGdG is above or exactly 90%.
result: NOT MET

----------
# Target Under Test: RHOQ
# Assay: reporter assay of Huesken 2005
# Experimental Parameters: siRNA
Oligonucleotides are written 5' to 3', each unit as a sugar letter and its base; * is a phosphorothioate linkage, no mark a phosphodiester; rarer units and linkages stand in square brackets, end groups in braces. Plain capitals give the bases only. d = 2'-deoxy (DNA); r = 2'-OH (RNA)
Class t: normalised inhibition (eCFP-eYFP dual reporter) at least 70%. Class f: normalised inhibition (eCFP-eYFP dual reporter) below 70%.

query: Can sense rCrArGrArUrUrGrGrGrUrArArUrGrGrArArCrAdTdT / antisense rUrGrUrUrCrCrArUrUrArCrCrCrArArUrCrUrGdTdG be said to have normalised inhibition (eCFP-eYFP dual reporter) at or above 70%?
result: t

query: Now consider sense rUrCrGrGrArCrArUrUrUrGrGrArUrGrUrCrUrUdTdT / antisense rArArGrArCrArUrCrCrArArArUrGrUrCrCrGrAdTdT .
result: t

query: Now try sense rUrGrUrGrArArCrArArCrCrUrArArUrGrCrArUdTdT / antisense rArUrGrCrArUrUrArGrGrUrUrGrUrUrCrArCrAdAdT .
result: t

query: // next record sense rUrUrUrCrUrUrArUrUrUrArArUrUrUrUrGrGrUdTdT / antisense rArCrCrArArArArUrUrArArArUrArArGrArArAdGdT
result: f

query: Subsequent entry: sense rArUrGrGrArUrGrCrArUrCrArGrArUrArArUrGdTdT / antisense rCrArUrUrArUrCrUrGrArUrGrCrArUrCrCrArUdTdA
result: t

query: Query sense rArCrUrUrUrCrUrUrArUrUrUrArArUrUrUrUrGdTdT / antisense rCrArArArArUrUrArArArUrArArGrArArArGrUdTdA next
result: f

query: Quick one: sense rArArArUrGrGrUrGrGrUrUrCrArCrArUrUrArAdTdT / antisense rUrUrArArUrGrUrGrArArCrCrArCrCrArUrUrUdCdT
result: t

query: Subsequent entry: sense rCrArArGrArArArUrGrGrUrGrGrUrUrCrArCrAdTdT / antisense rUrGrUrGrArArCrCrArCrCrArUrUrUrCrUrUrGdGdA
result: t

Continuing:
query: Does normalised inhibition (eCFP-eYFP dual reporter) meet or surpass 70% for sense rUrGrCrCrArUrGrCrArUrCrArGrArUrArArUrGdTdT / antisense rCrArUrUrArUrCrUrGrArUrGrCrArUrGrGrCrAdTdA ?
result: f

query: What do you have for sense rArCrArCrUrArArArCrUrUrUrUrArUrArCrUrUdTdT / antisense rArArGrUrArUrArArArArGrUrUrUrArGrUrGrUdTdC ?
result: t
